biological target: human PCSK9 (human, UniProt Q8NBP7 31-692, limits assumed); assay: cell-based or functional assay
Sequence (Q8NBP7 31-692 limits assumed): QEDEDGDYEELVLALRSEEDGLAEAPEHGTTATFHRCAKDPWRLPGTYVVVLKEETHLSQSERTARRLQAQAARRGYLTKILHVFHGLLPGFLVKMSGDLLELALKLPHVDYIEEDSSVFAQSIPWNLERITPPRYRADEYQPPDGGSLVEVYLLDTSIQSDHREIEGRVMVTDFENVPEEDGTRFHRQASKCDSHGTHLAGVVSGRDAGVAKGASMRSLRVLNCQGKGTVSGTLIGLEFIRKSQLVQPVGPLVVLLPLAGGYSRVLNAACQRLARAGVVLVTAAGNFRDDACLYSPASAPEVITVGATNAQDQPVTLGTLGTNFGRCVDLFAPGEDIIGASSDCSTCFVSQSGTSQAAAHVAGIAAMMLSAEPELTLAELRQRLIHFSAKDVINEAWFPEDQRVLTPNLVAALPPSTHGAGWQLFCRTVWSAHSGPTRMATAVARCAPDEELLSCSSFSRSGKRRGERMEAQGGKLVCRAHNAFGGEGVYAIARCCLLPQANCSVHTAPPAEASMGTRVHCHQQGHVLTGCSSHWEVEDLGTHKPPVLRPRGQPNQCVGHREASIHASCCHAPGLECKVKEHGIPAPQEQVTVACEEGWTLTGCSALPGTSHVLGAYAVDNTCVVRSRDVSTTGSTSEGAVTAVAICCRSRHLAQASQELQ
QUANTITY_MEASURED: Fab IC50 (nM), inhibition of PCSK9 on LDL uptake (Exopolar assay)
Give the value in nM but do not write nM after it.

# annotated cases, reported Fab IC50 (nM), inhibition of PCSK9 on LDL uptake (Exopolar assay) shown
[[record]]
binder = "AX9 Fab (Fab, V domains shown) VH: EVQLLESGGGLVQPGGSLRLSCKASGYTFSSYWMHWVRQAPGKGLEWIGRIDPYNGGTKYNEKFKGKATISRDNSKNTLYLQMNSLRAEDTAVYYCARYGYYLGSYAMDYWGQGTLVTVSS VL: DIQMTQSPSSLSASVGDRVTITCRASQDVSKYLAWYQQKPGKAPKLLIYAASSLQSGVPSRFSGSGSGTDFTLTISSLQPEDFATYYCQVYDSSPNAYVFGGGTKVEIKR"
result_units = "nM"
measured_number = 287

[[record]]
binder = "AX191 Fab (Fab, V domains shown) VH: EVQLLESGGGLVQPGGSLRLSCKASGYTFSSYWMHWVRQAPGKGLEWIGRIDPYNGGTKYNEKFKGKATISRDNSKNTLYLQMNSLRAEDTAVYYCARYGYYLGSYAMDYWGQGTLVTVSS VL: DIQMTQSPSSLSASVGDRVTITCRASQDISKYLAWYQQKPGKAPKLLIYAASSLQSGVPSRFSGSGSGTDFTLTISSLQPEDFATYYCQAYDYSSSAYVFGGGTKVEIK"
result_units = "nM"
measured_number = 13


Kindly note the recorded Fab IC50 (nM), inhibition of PCSK9 on LDL uptake (Exopolar assay) for AX189 Fab (Fab, V domains shown, The heavy chain is the Fd chain) VH: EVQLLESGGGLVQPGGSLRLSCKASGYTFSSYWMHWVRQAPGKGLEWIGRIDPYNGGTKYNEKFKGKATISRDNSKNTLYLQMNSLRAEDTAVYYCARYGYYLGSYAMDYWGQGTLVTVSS VL: DIQMTQSPSSLSASVGDRVTITCRASQDVSRYLTWYQQKPGKAPKLLIYAASSLQSGVPSRFSGSGSGTDFTLTISSLQPEDFATYYCQAYDYSLSGYVFGGGTKVEIKR , which is 31
